target: T1, FPR-GFP fusion protein (human; Aequorea victoria, UniProt P21462 1-350; P42212 1-238 = GFP); assay: flow cytometry, LR^FG assembly on αβγ DCNi beads, L varied; receptor depletes the ligand, so the filing says that the affinity of L for R^F is not revealed (FIG. 12C)
T1 construct: also called R^F; receptor-GFP fusion protein
No end group written: not given here. *: point of attachment. For = O=C*
property.label: pEC50
Give bare numbers, as −log10 of the molar value.

[in] State the recorded pEC50 for this entry: For-MLFFGGK (Synthesized by Commonwealth Biotechnologies; also called non-fluorescent ligand) [fMLFFGGK]
[out] 6.94
